assayed_target: acetylcholine muscarinic M1 receptor (CHOnfat/hM1 cells) (Homo sapiens, UniProt P11229)
Construct: Geneticin-selected)
Sequence (P11229 whole entry): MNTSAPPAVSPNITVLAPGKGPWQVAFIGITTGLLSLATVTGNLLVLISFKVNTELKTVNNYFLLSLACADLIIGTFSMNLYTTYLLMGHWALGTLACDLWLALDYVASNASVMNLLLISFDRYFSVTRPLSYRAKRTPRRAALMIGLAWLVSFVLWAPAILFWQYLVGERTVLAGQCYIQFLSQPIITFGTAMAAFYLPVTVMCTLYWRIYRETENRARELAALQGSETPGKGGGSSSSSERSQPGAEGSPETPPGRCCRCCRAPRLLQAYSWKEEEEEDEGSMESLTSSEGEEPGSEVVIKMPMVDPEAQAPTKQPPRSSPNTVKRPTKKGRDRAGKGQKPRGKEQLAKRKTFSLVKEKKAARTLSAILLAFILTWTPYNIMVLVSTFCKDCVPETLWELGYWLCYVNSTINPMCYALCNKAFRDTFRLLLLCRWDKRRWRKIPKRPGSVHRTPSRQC
protocol_notes: muscarinic M1 FLIPR intracellular calcium assay (positive allosteric modulation)
setup_conditions: FLIPR Ca2+, 4 min preincubation, then EC20 acetylcholine (3 nM final), read-out: IP Value (inflection point)
pEC50: −log10 of the molar value.
Assign fulfilled whenever pEC50 does not fall below 6; assign not fulfilled whenever it does.

* COc1ccc(Cn2cc3c(=O)n(-c4ccccc4F)nc-3c3ccccc32)cc1 | fulfilled
* Cc1ccnc(N[C@H]2CCCC[C@@H]2n2cc3c(=O)n(-c4nccc(C)c4F)nc-3c3c(NCc4ccc(-n5cccn5)cc4)c(F)ccc32)c1F (racemic) | fulfilled
* O=c1c2cn(Cc3ccc(-c4ccccc4)cc3)c3ccccc3c-2nn1-c1ccccc1F | not fulfilled

Task: Please check the record O=c1c2cn(Cc3ccc(-n4cccn4)cc3)c3ccccc3c-2nn1-c1ccccc1F and state if its pEC50 is at or above 6.
Result: fulfilled

Task: Reported pEC50 reaches at least 6 for O=c1c2cn(Cc3ccc(-n4cccn4)cc3)c3c(F)ccc(F)c3c-2nn1-c1ncccc1C(F)(F)F ?
Result: fulfilled

Data credit: patent US8895580B2
